Target: ErbB3 on rat Schwann cells (rat) (UniProt Q62799)
Sequence (Q62799 20-1339): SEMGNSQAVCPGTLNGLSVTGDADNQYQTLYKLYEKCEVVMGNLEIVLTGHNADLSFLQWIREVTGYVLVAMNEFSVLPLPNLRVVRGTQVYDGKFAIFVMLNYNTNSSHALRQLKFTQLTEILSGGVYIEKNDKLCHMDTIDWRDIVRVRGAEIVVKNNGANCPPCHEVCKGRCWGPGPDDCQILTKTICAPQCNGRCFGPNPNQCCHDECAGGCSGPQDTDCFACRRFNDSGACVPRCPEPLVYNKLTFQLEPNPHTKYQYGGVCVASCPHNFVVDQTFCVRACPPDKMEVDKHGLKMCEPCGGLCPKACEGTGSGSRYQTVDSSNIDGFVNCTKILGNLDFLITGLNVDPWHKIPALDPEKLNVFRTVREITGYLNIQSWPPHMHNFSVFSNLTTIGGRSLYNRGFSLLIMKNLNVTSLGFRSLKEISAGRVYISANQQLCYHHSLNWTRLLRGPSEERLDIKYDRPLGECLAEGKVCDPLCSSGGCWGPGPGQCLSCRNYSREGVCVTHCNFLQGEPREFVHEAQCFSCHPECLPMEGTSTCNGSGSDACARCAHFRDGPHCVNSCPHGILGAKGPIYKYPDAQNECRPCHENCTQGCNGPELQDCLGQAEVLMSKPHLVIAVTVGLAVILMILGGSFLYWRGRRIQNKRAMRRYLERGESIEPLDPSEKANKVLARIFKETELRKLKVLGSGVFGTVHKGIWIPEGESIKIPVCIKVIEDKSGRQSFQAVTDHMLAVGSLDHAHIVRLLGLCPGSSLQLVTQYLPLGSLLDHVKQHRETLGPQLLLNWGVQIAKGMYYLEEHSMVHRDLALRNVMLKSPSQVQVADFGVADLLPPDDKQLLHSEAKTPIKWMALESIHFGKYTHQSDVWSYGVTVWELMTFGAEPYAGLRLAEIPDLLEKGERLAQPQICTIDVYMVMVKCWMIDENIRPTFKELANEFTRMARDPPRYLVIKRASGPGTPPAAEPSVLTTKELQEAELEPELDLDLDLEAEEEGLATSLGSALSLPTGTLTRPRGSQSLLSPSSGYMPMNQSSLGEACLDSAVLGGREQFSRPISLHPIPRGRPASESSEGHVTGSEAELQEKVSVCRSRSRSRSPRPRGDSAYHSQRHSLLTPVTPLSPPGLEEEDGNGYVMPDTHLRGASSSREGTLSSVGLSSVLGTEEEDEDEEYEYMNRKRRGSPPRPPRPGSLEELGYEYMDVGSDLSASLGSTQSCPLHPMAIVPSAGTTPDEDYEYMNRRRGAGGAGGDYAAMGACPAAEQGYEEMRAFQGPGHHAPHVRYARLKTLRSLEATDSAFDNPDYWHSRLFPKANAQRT
Assay: cell-based or functional assay
quantity kind: Schwann cells (SC) (ErbB3) Avg EC50 (nM)
Numbers only; they are read as nM.

Reported Schwann cells (SC) (ErbB3) Avg EC50 of huNRG1(S177-Q237)(1A7)::GG::huFcSEFL2 (Pb) (Fc fusion) SHLVKCAERDKSFCVNGGECYVIEHLSNPSRFLCKCPNEFTGDRCQKDFMASFYKAEELYQGGDKTHTCPPCPAPELLGGPSVFLFPPKPKDTLMISRTPEVTCVVVDVSHEDPEVKFNWYVDGVEVHNAKTKPCEEQYGSTYRCVSVLTVLHQDWLNGKEYKCKVSNKALPAPIEKTISKAKGQPREPQVYTLPPSREEMTKNQVSLTCLVKGFYPSDIAVEWESNGQPENNYKTTPPVLDSDGSFFLYSKLTVDKSRWQQGNVFSCSVMHEALHNHYTQKSLSLSPGK : 1000

Reported Schwann cells (SC) (ErbB3) Avg EC50 of huNRG1(S177-Q237)(_FVIEDPSI)::GG::huFcSEFL2 (Pb) (Fc fusion) SHLVKCAEKEKTFCVNGGECFVIEDPSIPSRYLCKCPNEFTGDRCQNYVMASFYKAEELYQGGDKTHTCPPCPAPELLGGPSVFLFPPKPKDTLMISRTPEVTCVVVDVSHEDPEVKFNWYVDGVEVHNAKTKPCEEQYGSTYRCVSVLTVLHQDWLNGKEYKCKVSNKALPAPIEKTISKAKGQPREPQVYTLPPSREEMTKNQVSLTCLVKGFYPSDIAVEWESNGQPENNYKTTPPVLDSDGSFFLYSKLTVDKSRWQQGNVFSCSVMHEALHNHYTQKSLSLSPGK : 4.27
